Recorded measurements of IC50, one per entry
Target chain: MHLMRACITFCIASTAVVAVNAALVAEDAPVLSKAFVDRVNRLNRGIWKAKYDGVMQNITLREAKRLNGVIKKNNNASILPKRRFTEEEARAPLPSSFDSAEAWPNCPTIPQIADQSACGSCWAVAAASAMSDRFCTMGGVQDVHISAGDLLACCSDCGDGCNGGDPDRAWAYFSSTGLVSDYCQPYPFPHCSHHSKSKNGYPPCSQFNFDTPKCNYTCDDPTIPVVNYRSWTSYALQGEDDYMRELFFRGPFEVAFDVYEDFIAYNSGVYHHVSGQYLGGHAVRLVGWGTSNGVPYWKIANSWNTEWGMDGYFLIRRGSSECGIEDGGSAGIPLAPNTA
Report the value in µM with no unit label.

C[n+]1c2ccccc2c(NCCCN2CCCCC2)c2[nH]c3ccccc3c21.[Cl-]: 60
C[n+]1c2ccccc2cc2[n-]c3ccccc3c21.Cl [CRYPTOLEPINE HYDROCHLORIDE]: 64

// next item, IC50 requested
What value of IC50 has been recorded for this entry: C[n+]1c2ccccc2c(Nc2ccc(N3CCCCC3)cc2)c2[nH]c3ccccc3c21.[Cl-]
76

* * *

Sequence of the target: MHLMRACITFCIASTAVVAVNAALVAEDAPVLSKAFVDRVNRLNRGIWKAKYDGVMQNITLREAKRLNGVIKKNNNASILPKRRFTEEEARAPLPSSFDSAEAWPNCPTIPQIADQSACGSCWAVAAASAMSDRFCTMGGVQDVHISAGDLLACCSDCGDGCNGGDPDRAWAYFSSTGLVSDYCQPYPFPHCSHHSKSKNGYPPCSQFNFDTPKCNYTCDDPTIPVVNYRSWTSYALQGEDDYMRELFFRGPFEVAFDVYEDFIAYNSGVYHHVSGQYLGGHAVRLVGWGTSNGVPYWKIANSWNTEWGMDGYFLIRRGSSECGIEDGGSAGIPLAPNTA
Measured parameter: IC50
Please answer using a numeric value trailed by its unit.

Observe how each entry below is paired with its result.
CC(C)CN1CCC(Nc2c3ccccc3[n+](C)c3c2[nH]c2ccccc23)CC1.[Cl-]: 26 µM
CN(C)CC(C)(C)CNc1c2ccccc2[n+](C)c2c1[nH]c1ccccc12.[Cl-]: 62 µM
C[n+]1c2cc(Cl)ccc2c(NC2CCNCC2)c2[nH]c3ccccc3c21.[Cl-]: 59 µM
CCN(CC)CCCCNc1c2ccccc2[n+](C)c2c1[nH]c1ccccc12.[Cl-]: 55 µM
C[n+]1c2ccccc2c(NC2CCN(Cc3ccccc3O)CC2)c2[nH]c3ccccc3c21.[Cl-]: 26 µM
CCN(CC)Cc1ccc(Nc2c3ccccc3[n+](C)c3c2[nH]c2ccccc23)cc1O.[Cl-]: 59 µM
CN(C)CCCNc1c2ccccc2[n+](C)c2c1[nH]c1ccccc12.[Cl-]: 31 µM
CC(C)NCCCNc1c2ccccc2[n+](C)c2c1[nH]c1ccccc12.[Cl-]: 62 µM

Moving on to another compound below.
Look at this compound and give its reported IC50. CCN(CC)CCNc1c2ccccc2[n+](C)c2c1[nH]c1ccccc12.[Cl-]
95 µM

* * *

Test system: Trypanosoma brucei brucei
Method description: Antitrypanosomal activity against Trypanosoma brucei brucei
Type: functional, organism-based
Recorded pIC50 values for a group of molecules are listed next.
Scale explanation: pIC50 corresponds to minus log10 of a concentration expressed in moles per litre.

Past entries and their recorded results:
C[n+]1c2ccccc2c(NC2CCN(Cc3ccccc3)CC2)c2[nH]c3ccccc3c21.[Cl-]: 7.52
CCN(CC)CCCC(C)Nc1c2ccccc2[n+](C)c2c1[nH]c1ccccc12.[Cl-] (stereo not drawn): 6.40
CCN(CC)CCCCNc1c2ccccc2[n+](C)c2c1[nH]c1ccccc12.[Cl-]: 7.52
CCN(CC)CCNc1c2ccccc2[n+](C)c2c1[nH]c1ccccc12.[Cl-]: 6.05
C[n+]1c2ccccc2c(NC2CCNCC2)c2[nH]c3ccccc3c21.[Cl-]: 8.00

Look up pIC50 for this molecule: CC(C)CN1CCC(Nc2c3ccccc3[n+](C)c3c2[nH]c2ccccc23)CC1.[Cl-]
7.30

Record request: pIC50 value, item C[n+]1c2cc(Cl)ccc2c(NC2CCNCC2)c2[nH]c3ccccc3c21.[Cl-]
6.52

Would you mind telling me what pIC50 value was observed for CC(CN(C)C)Nc1c2ccccc2[n+](C)c2c1[nH]c1ccccc12.[Cl-] (stereo not drawn) ?
6.00

* * *

compounds and their reported log10(CC50)
Method description: Cytotoxicity against african green monkey Vero cells
Format: cell-based
Assay conditions: chlorocebus sabaeus
Annotation: log10 of CC50, nM basis.

Solved cases below.
CCN(CC)CCNc1c2ccccc2[n+](C)c2c1[nH]c1ccccc12.[Cl-]: 3.45
CCN(CC)CCCC(C)Nc1c2ccccc2[n+](C)c2c1[nH]c1ccccc12.[Cl-] (centres undefined): 4.11
C[n+]1c2ccccc2c(NC2CCN(Cc3ccccc3)CC2)c2[nH]c3ccccc3c21.[Cl-]: 3.34
CN(C)CC(C)(C)CNc1c2ccccc2[n+](C)c2c1[nH]c1ccccc12.[Cl-]: 3.48
CN(C)CCCNc1c2ccccc2[n+](C)c2c1[nH]c1ccccc12.[Cl-]: 3.34

Quick one: log10(CC50) for C[n+]1c2ccccc2cc2[n-]c3ccccc3c21.Cl [CRYPTOLEPINE HYDROCHLORIDE] ?
3.04

Return reported log10(CC50); argument: CCN(CC)CCCNc1c2ccc(Cl)cc2[n+](C)c2c1[nH]c1ccccc12.[Cl-]
3.11

# get_value(readout='log10(CC50)', item= C[n+]1c2cc(Cl)ccc2c(NC2CCNCC2)c2[nH]c3ccccc3c21.[Cl-] )
3.64

// returns reported log10(CC50) for input CN(C)CCNc1c2ccccc2[n+](C)c2c1[nH]c1ccccc12.[Cl-]
3.74

* * *

Measured on: Cathepsin B-like cysteine protease (Trypanosoma brucei, UniProt Q6R7Z5)
Quick reference for IC50 among some compounds
Response body: numeric value in µM, unit text excluded.

Use these answered entries as a reference point.
C[n+]1c2ccccc2c(Nc2ccccc2)c2[nH]c3ccccc3c21.[Cl-]: 99
C[n+]1c2ccccc2c(Nc2cccnc2)c2[nH]c3ccccc3c21.[Cl-]: 59

Kindly consider the entry below.
Sample C[n+]1c2cc(Cl)ccc2c(NC2CCNCC2)c2[nH]c3cc(Cl)ccc3c21.[Cl-] — what was its IC50?
43

* * *

Method description: Cytotoxicity against african green monkey Vero cells
Type: cell-based
Assay conditions: chlorocebus sabaeus
# Lookup of reported CC50 keyed by entry
# value in µM; strip the unit string

Examples with their reported CC50 follow.
C[n+]1c2ccccc2c(Nc2ccccc2)c2[nH]c3ccccc3c21.[Cl-]: 0.6
CC(C)NCCCNc1c2ccccc2[n+](C)c2c1[nH]c1ccccc12.[Cl-]: 3
CCN(CC)CCCCNc1c2ccccc2[n+](C)c2c1[nH]c1ccccc12.[Cl-]: 10
CCN(CC)Cc1ccc(Nc2c3ccccc3[n+](C)c3c2[nH]c2ccccc23)cc1O.[Cl-]: 0.8

As a next step, examine the molecule that follows.
Please give the measured CC50 for this molecule: C[n+]1c2ccccc2c(NC2CCN(Cc3ccccc3O)CC2)c2[nH]c3ccccc3c21.[Cl-]
2.6

* * *

Measured on: UniProt:Q95PM0
Sequence (Q95PM0 whole entry): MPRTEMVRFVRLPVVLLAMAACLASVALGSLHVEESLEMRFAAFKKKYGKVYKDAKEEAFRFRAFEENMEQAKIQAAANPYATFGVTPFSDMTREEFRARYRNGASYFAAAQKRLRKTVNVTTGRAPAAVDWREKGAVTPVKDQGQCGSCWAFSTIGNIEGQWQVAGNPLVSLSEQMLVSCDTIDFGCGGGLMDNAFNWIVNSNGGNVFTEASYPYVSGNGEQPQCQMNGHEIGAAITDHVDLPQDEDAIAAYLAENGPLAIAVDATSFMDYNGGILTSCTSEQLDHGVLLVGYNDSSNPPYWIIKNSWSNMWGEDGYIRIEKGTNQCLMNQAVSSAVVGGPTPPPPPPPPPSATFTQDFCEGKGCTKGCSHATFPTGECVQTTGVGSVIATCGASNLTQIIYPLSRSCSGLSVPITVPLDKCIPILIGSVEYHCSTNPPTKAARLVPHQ
Response field label takes met when IC50 is strictly below 6 µM and not met in all other cases.

C[n+]1c2ccccc2c(NC2CCNCC2)c2[nH]c3ccccc3c21.[Cl-]: met

Please let me know if CCN(CC)CCCNc1c2ccc(Cl)cc2[n+](C)c2c1[nH]c1ccccc12.[Cl-] shows IC50 below 6 µM.
met

Threshold test, IC50 < 6 µM: CCN(CC)CCCC(C)Nc1c2ccccc2[n+](C)c2c1[nH]c1ccccc12.[Cl-] (centres undefined)
not met

Below 6 µM on IC50? Entry CN(C)CCNc1c2ccccc2[n+](C)c2c1[nH]c1ccccc12.[Cl-]
not met

Lab note: confirm whether the reported IC50 for this compound is below 6 µM, equality not counting. compound: C[n+]1c2ccccc2c(NC2CCN(Cc3ccccc3O)CC2)c2[nH]c3ccccc3c21.[Cl-]
met

In plain terms, does C[n+]1c2ccccc2c(Nc2ccccc2)c2[nH]c3ccccc3c21.[Cl-] come in under 6 µM for IC50?
not met

Please state whether IC50 is below 6 µM for CN(C)CC(C)(C)CNc1c2ccccc2[n+](C)c2c1[nH]c1ccccc12.[Cl-]
not met

Lab note: confirm whether the reported IC50 for this compound is below 6 µM, equality not counting. compound: CC(CN(C)C)Nc1c2ccccc2[n+](C)c2c1[nH]c1ccccc12.[Cl-] (centres undefined)
met

Decide: IC50 of CC(C)CN1CCC(Nc2c3ccccc3[n+](C)c3c2[nH]c2ccccc23)CC1.[Cl-] strictly below 6 µM?
met

Please determine if CCN(CC)Cc1ccc(Nc2c3ccccc3[n+](C)c3c2[nH]c2ccccc23)cc1O.[Cl-] is below 6 µM in terms of IC50.
met

# check: IC50 < 6 µM for CCN(CC)CCCNc1c2ccccc2[n+](C)c2c1[nH]c1ccccc12.[Cl-]
not met

Given the entry C[n+]1c2ccccc2c(Nc2ccc(N3CCCCC3)cc2)c2[nH]c3ccccc3c21.[Cl-] , would its reported IC50 be below 6 µM?
met

Threshold test, IC50 < 6 µM: CC(C)NCCCNc1c2ccccc2[n+](C)c2c1[nH]c1ccccc12.[Cl-]
not met
